The origin of these recorded values is ChEMBL document CHEMBL1139344.

target: Adenosine receptor A2a (Homo sapiens); assay: Displacement of radioligand from human recombinant adenosine A2A receptor at 21 degC after 90 mins by cell-based microplate scintillation counting
quantity measured: log10 Ki (log10 of the value in nM)

Nc1nc(-c2ccco2)c2nnn(Cc3cc(F)ccc3F)c2n1 :: 0.34
Nc1nc(-c2ccco2)c2nnn(Cc3ccc(F)cc3F)c2n1 :: 0.30
CC(C)N(C)C(=O)c1cccc(Cn2nnc3c(-c4ccco4)nc(N)nc32)c1 :: 1.34
Nc1nc(-c2ccco2)c2nnn(Cc3cccc(C(F)(F)F)c3)c2n1 :: 0.34
Cc1cnc(-c2nc(N)nc3c2nnn3Cc2ccccc2F)s1 :: 0.93
Cc1ccccc1Cn1nnc2c(-c3ccco3)nc(N)nc21 :: 0.48
Nc1nc(-c2ccco2)c2nnn(Cc3ccccn3)c2n1 :: 1.08
Nc1nc(-c2ccco2)c2nnn(Cc3cccc(Cl)c3)c2n1 :: 0.36
Nc1nc(-c2ccco2)c2nnn(Cc3cccc([N+](=O)[O-])c3)c2n1 :: 0.57
Nc1nc(-c2ccco2)c2nn[nH]c2n1 :: 2.29
Nc1nc(-c2ccco2)c2nnn(Cc3ccccc3)c2n1 :: 0.28

###

target: Adenosine receptor A2a (Homo sapiens, UniProt P29274); assay: Displacement of radioligand from human recombinant adenosine A2A receptor at 21 degC after 90 mins by cell-based microplate scintillation counting
Sequence (P29274 whole entry): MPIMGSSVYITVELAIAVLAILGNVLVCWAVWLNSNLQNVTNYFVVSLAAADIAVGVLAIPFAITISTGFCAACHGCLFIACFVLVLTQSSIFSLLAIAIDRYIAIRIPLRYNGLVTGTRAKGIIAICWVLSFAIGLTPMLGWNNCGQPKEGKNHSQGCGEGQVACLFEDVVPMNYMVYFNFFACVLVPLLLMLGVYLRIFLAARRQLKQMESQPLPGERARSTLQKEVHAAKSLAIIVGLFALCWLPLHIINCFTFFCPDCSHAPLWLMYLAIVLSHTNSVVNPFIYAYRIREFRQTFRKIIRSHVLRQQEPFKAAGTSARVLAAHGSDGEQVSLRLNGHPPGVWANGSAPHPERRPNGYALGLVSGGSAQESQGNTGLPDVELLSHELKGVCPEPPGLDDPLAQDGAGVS
pKi: −log10 of the molar value.
Property: pKi; scope: individual compounds
quantity measured: pKi

Nc1nc(-c2ccco2)c2nnn(Cc3ccccc3[N+](=O)[O-])c2n1 :: 8.18
Nc1nc(-c2ccco2)c2nnn(Cc3ccc4[nH]ncc4c3)c2n1 :: 8.07
Nc1nc(-c2ccco2)c2nnn(CC3CCCCC3)c2n1 :: 8.07
Nc1ccc(Cn2nnc3c(-c4ccco4)nc(N)nc32)c(F)c1 :: 8.46
COC(=O)c1cccc(Cn2nnc3c(-c4ccco4)nc(N)nc32)c1 :: 8.39
Nc1nc(-c2nccs2)c2nnn(Cc3ccccc3F)c2n1 :: 8.07
Nc1nc(-c2cc[nH]n2)c2nnn(Cc3ccccc3F)c2n1 :: 6.62
Nc1nc(-c2ccco2)c2nnn(Cc3ccco3)c2n1 :: 8.06
CNc1ccc(Cn2nnc3c(-c4ccco4)nc(N)nc32)cc1 :: 8.80
Nc1nc(-c2ccco2)c2nnn(Cc3ccc4[nH]ccc4c3)c2n1 :: 8.96
COc1cccc(Cn2nnc3c(-c4ccco4)nc(N)nc32)c1 :: 8.74
Nc1nc(-c2cncs2)c2nnn(Cc3ccccc3F)c2n1 :: 7.51

###

test: Tmax in Sprague-Dawley rat at 2 mg/kg, iv; type: ADME, organism-based; parameters: dose 2 mg/kg, route intravenous; conditions: in vivo
quantity measured: Tmax (min)

Cc1cc(Cn2nnc3c(-c4ccco4)nc(N)nc32)ccc1N [VIPADENANT] :: 30

###

target: Adenosine receptor A3 (Homo sapiens, UniProt P0DMS8); assay: Displacement of radioligand from human recombinant adenosine A3 receptor at 21 degC after 60 mins by cell-based microplate scintillation counting
Sequence (P0DMS8 whole entry): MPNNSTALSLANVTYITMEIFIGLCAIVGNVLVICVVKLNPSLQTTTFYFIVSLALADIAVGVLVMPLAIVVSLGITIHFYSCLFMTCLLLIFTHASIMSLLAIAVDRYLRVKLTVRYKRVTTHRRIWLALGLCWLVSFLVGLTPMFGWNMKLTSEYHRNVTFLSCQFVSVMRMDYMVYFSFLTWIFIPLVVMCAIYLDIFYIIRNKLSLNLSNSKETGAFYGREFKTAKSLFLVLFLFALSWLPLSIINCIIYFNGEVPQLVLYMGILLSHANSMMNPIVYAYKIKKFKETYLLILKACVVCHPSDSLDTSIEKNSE
Property: Ki; scope: individual compounds
quantity measured: Ki (nM)

COC(=O)c1cccc(Cn2nnc3c(-c4ccco4)nc(N)nc32)c1 :: 1170
CC(C)NC(=O)c1cccc(Cn2nnc3c(-c4ccco4)nc(N)nc32)c1 :: 530
Nc1nc(-c2cccs2)c2nnn(Cc3ccccc3F)c2n1 :: 871
Cc1ccccc1Cn1nnc2c(-c3ccco3)nc(N)nc21 :: 341
Nc1nc(-c2cc[nH]n2)c2nnn(Cc3ccccc3F)c2n1 :: 1290
Nc1nc(-c2ccco2)c2nnn(Cc3ccccc3F)c2n1 :: 440
NC(=O)c1cccc(Cn2nnc3c(-c4ccco4)nc(N)nc32)c1 :: 2580
COc1cccc(Cn2nnc3c(-c4ccco4)nc(N)nc32)c1 :: 563
Nc1nc(-c2ccco2)c2nnn(Cc3cccc([N+](=O)[O-])c3)c2n1 :: 844
Nc1nc(-c2ccco2)c2nnn(Cc3cccc(F)c3F)c2n1 :: 619
Cc1cccc(Cn2nnc3c(-c4ccco4)nc(N)nc32)c1 :: 360
